system: Listeria monocytogenes ATCC 19115; assay: Experiment 3: detecting an esterase activity in liquid medium (API-type strips); type: cell-based; set-up: key: —: the symbol “-” corresponds to the absence of color or intensity; 0 corresponds to no activity; 0.1 corresponds to a trace of color; 0.5 corresponds to very pale coloration; 1 corresponds to clear but low-intensity coloration; 1.5 corresponds to a degree of coloration intermediate between scores 1 and 2; 2 corresponds to clear coloration of moderate intensity; 2.5 corresponds to a degree of coloration intermediate between scores 2 and 3; 3 corresponds to intense coloration; 3.5 corresponds to a degree of coloration intermediate between scores 3 and 4; 4 corresponds to very intense coloration; conditions: IT 6 h, 37° C.
Catalogue of I (intensity of the color) values
Form field (numeric): enter value without unit.

compound	I (intensity of the color)
CC(=O)Oc1c[nH]c2ccccc12 [Y-C2, 3-Indolyl acetate]	4
CC(=O)Oc1c[nH]c2ccc(Br)c(Cl)c12 [X-C2, 5-Bromo-4-chloro-3-indolyl acetate]	4
CCCC(=O)Oc1c[nH]c2ccc(Br)c(Cl)c12 [X-C4, 5-Bromo-4-chloro-3-indolyl butyrate]	2

# ---- query compound ----
I (intensity of the color) reported for this compound CCCCCCCC(=O)Oc1c[nH]c2ccc(Br)c(Cl)c12 [X-C8, 5-Bromo-4-chloro-3-indolyl octanoate] : 1
